- tested system: GST-Chk1 enzyme (Homo sapiens, UniProt O14757)
- Sequence (O14757 whole entry): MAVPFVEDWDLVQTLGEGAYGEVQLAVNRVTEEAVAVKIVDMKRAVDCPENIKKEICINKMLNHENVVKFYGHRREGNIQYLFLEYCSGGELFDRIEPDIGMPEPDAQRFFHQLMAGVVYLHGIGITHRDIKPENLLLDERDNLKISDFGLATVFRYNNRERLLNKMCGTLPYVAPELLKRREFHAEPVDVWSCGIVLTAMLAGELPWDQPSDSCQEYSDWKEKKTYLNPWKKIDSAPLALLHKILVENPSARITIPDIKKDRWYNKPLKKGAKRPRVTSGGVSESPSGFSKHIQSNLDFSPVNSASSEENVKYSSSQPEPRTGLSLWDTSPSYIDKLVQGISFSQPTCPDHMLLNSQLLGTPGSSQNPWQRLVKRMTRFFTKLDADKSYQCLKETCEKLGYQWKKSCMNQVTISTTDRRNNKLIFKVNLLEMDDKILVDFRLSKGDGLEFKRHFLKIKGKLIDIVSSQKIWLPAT
- run description: Chk1 kinase inhibition assay (33P phosphorylation of Chktide, filter plate)
- Format: biochemical
- measurement conditions: 0.01 mM ATP, 11 nM GST-Chk1, 40 minutes at 30° C.; read-out: Chk1 IC50
measured quantity: IC50 (µM)

P. CC(C)COc1cc(Nc2ccc(S(=O)(=O)N(C)CCN(C)C)cc2)n2ncc(C(C)C)c2n1
Q. CC(C)c1cnn2c(Nc3ccc(S(=O)(=O)N(C)C)cc3)cc(OC3CCN(C)C3)nc12 (centres unmarked)
Compare reported IC50 values for P and Q . Which is lower? Mark your selection by writing its label.
P

I. CN(C)S(=O)(=O)c1ccc(Nc2cc(O[C@H]3CCNC3)nc3c(Cl)cnn23)cc1
II. Cc1cccc(-c2cc(Nc3ccc(S(=O)(=O)Nc4ccccn4)cc3)n3nccc3n2)c1
Quick check, higher IC50 between I and II ? Mark your selection by writing its label.
II

###

Reported IC50 is given for each of the following compounds.
- tested system: PDK1 enzyme (Homo sapiens, UniProt O15530)
- run description: PDK1 kinase inhibition assay (33P phosphorylation of synthetic peptide, filter plate)
- Assay type: biochemical
- measurement conditions: 0.01 mM ATP, 60 min at 30° C.; read-out: PDK1 IC50

Please review the entries below; each comes with its answer.
> print(dat)
                                test.smiles  measured.quantity  meas.value
1  CC(=O)N[C@H]1CC[C@H](Nc2cc(Nc3ccc(S(=O)(=O)N(C)C)cc3)n3ncc(C(C)C)c3n2)CC1               IC50    > 200 µM
2  CC(C)c1cnn2c(Nc3ccc(S(=O)(=O)N(C)C)cc3)cc(OC3CCCC3)nc12               IC50    > 200 µM
3  CC(C)c1cnn2c(Nc3ccc(S(=O)(=O)N(C)C)cc3)cc(N3CCC[C@H]3CN)nc12               IC50    > 200 µM

# context switch: different compound, same IC50
Reported IC50 for PDK1 enzyme (Homo sapiens, UniProt O15530), given `CN(C)S(=O)(=O)c1ccc(Nc2cc(N[C@H]3CC[C@H](N)CC3)nc3c(C#N)cnn23)cc1` ?
1.35 µM

###

- tested system: CDK-2 enzyme, complexed with cyclin A (Homo sapiens, UniProt P24941)
- run description: CDK2 enzyme inhibition assay (33P phosphorylation of peptide […], filter plate)
- measurement conditions: CDK-2/cyclin A, 0.1 mM ATP, 40 min at 30° C.
measured quantity: IC50 (nM)

Please review the entries below; each comes with its answer.
> print(dat)
                                test.smiles  units.of.measure  meas.value
1  CSc1cnn2c(Nc3ccc(S(=O)(=O)N(C)C)cc3)cc(N[C@H]3CC[C@H](N)CC3)nc12                nM          55
2  CC(C)c1cnn2c(Nc3ccc(S(=O)(=O)N(C)C)cc3)cc(C(=O)O)nc12                nM       23300
3  CC(C)c1cnn2c(Nc3ccc(S(N)(=O)=O)cc3)cc(N[C@H]3CC[C@H](N)CC3)nc12                nM          26
4  CCN(CC)C(=O)COc1cc(Nc2ccc(S(=O)(=O)N(C)C)cc2)n2ncc(C(C)C)c2n1                nM         419
5  CS(=O)(=O)c1ccc(Nc2cc(Cl)nc3c(Br)cnn23)cc1                nM         230
6  CN(C)S(=O)(=O)c1ccc(Nc2cc(O[C@H]3CCNC3)nc3c(Cl)cnn23)cc1                nM         360

I. CC(C)c1cnn2c(Nc3ccc(S(=O)(=O)NCCN(C)C)cc3)cc(OC3CCCCC3)nc12
II. CN(C)S(=O)(=O)c1ccc(Nc2cc(N[C@H]3CC[C@H](N)CC3)nc3c(-c4ccsc4)cnn23)cc1
Quick check, higher IC50 between I and II ? Mark your selection by writing its label.
II

###

- tested system: PDK1 enzyme (Homo sapiens, UniProt O15530)
- Sequence (O15530 1-556): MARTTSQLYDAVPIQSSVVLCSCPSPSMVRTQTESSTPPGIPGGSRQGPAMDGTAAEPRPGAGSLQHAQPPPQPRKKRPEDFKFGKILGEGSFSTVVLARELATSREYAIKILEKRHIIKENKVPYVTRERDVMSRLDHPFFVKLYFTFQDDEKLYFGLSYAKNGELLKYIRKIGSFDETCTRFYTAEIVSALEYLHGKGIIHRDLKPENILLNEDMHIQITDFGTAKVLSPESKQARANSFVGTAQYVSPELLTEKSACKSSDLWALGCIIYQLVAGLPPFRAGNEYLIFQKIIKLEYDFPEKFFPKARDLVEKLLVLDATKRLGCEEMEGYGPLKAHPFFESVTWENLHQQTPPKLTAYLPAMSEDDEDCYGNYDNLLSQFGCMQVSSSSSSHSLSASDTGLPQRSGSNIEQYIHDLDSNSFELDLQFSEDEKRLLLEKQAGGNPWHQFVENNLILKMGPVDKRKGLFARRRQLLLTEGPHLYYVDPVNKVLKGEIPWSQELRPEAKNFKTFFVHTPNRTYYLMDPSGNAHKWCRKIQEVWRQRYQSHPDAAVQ
- run description: PDK1 kinase inhibition assay (33P phosphorylation of synthetic peptide, filter plate)
- Assay type: biochemical
- measurement conditions: 0.01 mM ATP, 60 min at 30° C.; read-out: PDK1 IC50
measured quantity: IC50 (µM)

Please review the entries below; each comes with its answer.
> print(dat)
                                   compound  meas.value
1  CCc1cnn2c(Nc3ccc(S(=O)(=O)N(C)C)cc3)cc(NC3CC(C)(C)NC(C)(C)C3)nc12        12.9
2  CC(C)c1cnn2c(Nc3ccc(S(=O)(=O)N(C)C)cc3)cc(N[C@H]3CC[C@H](N)CC3)nc12        19.9
3  N[C@H]1CC[C@H](Nc2cc(Nc3ccc(Oc4ccccc4)cc3)n3ncc(Cl)c3n2)CC1           2
4  CS(=O)(=O)c1ccc(Nc2cc(N[C@H]3CC[C@@H](N)CC3)nc3c(Br)cnn23)cc1         4.7
5  CC(C)c1cnn2c(Nc3ccc(S(=O)(=O)N(C)C)cc3)cc(N[C@H]3CC[C@H](NC(N)=O)CC3)nc12           9

P. Cc1cccc(-c2cc(Nc3ccc(S(=O)(=O)Nc4nccs4)cc3)n3nccc3n2)c1
Q. CC1(C)CC(Nc2cc(Nc3ccc(S(=O)(=O)Nc4nccs4)cc3)n3ncc(Br)c3n2)CC(C)(C)N1
Quick check, higher IC50 between P and Q ? Mark your selection by writing its label.
P
(P: 31.6 µM, Q: 2.15 µM)

P. CC(C)c1cnn2c(Nc3ccc(S(=O)(=O)N(C)C)cc3)cc(N[C@H]3CC[C@@H](N)CC3)nc12
Q. CNS(=O)(=O)c1ccc(Nc2cc(Cl)nc3c(C(C)C)cnn23)cc1
R. CN(C)S(=O)(=O)c1ccc(Nc2cc(N[C@H]3CC[C@H](N)CC3)nc3c(C4CC4)cnn23)cc1
S. N[C@H]1CC[C@H](Nc2cc(Nc3ccc(Sc4cccs4)cc3)n3ncc(Cl)c3n2)CC1
T. CC(C)c1cnn2c(Nc3ccc(S(=O)(=O)N(C)C)cc3)cc(N[C@H]3CCCC[C@H]3N)nc12
# sort list by recorded IC50, greatest to least Provide the ranking by listing each label in its place in the requested order.
Q, T, S, P, R

I. CC(C)c1cnn2c(Nc3ccc(S(=O)(=O)N(C)C)cc3)cc(N[C@H]3CCNC3)nc12
II. CC(C)c1cnn2c(Nc3ccc(S(=O)(=O)N(C)C)cc3)cc(O[C@H]3CC[C@H](N)CC3)nc12
III. CC(C)c1cnn2c(Nc3ccc(S(=O)(=O)N(C)CCN(C)C)cc3)cc(N[C@H]3CC[C@H](N)CC3)nc12
# sort list by recorded IC50, greatest to least Provide the ranking by listing each label in its place in the requested order.
II, III, I
(II: 125 µM, III: 6.91 µM, I: 4.42 µM)

1. CN(C)S(=O)(=O)c1ccc(Nc2cc(N[C@H]3CC[C@H](N)CC3)nc3c(-c4ccccc4)cnn23)cc1
2. CC(C)c1cnn2c(Nc3ccc(S(=O)(=O)N(C)C)cc3)cc(NC3CCCC(N)C3)nc12 (stereo not shown)
Compare reported IC50 values for 1 and 2 . Which is lower? Mark your selection by writing its label.
2
(2: 3.12 µM, 1: 6 µM)

###

- tested system: PDK1 enzyme (Homo sapiens, UniProt O15530)
- run description: PDK1 kinase inhibition assay (33P phosphorylation of synthetic peptide, filter plate)
- Format: biochemical
- measurement conditions: 0.01 mM ATP, 60 min at 30° C.; read-out: PDK1 IC50
measured quantity: IC50 (µM)

> print(dat)
                                   molecule                             tested.system  units.of.measure  meas.value
1  CN(C)S(=O)(=O)c1ccc(Nc2cc(N[C@H]3CC[C@H](N)CC3)nc3c(Br)cnn23)cc1Cl [Example 180]  PDK1 enzyme (Homo sapiens, UniProt O15530)                µM           2

I. CCN(CC)[C@H]1CC[C@H](Nc2cc(Nc3ccc(S(=O)(=O)N(C)C)cc3)n3ncc(C(C)C)c3n2)CC1 [Example 100]
II. CN(C)S(=O)(=O)c1ccc(Nc2cc(N[C@H]3CC[C@H](N)CC3)nc3c(Br)cnn23)cc1 [Example 31]
III. CN(C)S(=O)(=O)c1ccc(Nc2cc(O[C@H]3CC[C@H](N)CC3)nc3c(Cl)cnn23)cc1 [Example 168]
IV. O=S(=O)(c1ccccc1)c1ccc(Nc2cc(N[C@H]3CC[C@H](O)CC3)nc3c(Br)cnn23)cc1 [Example 182]
# sort list by recorded IC50, greatest to least Provide the ranking by listing each label in its place in the requested order.
I, III, IV, II
(I: 30.3 µM, III: 15.2 µM, IV: 3 µM, II: 0.325 µM)
